- testSystem: RNA-directed RNA polymerase (Hepacivirus hominis, UniProt O39930, S282T)
- Sequence (O39930 entry or part of it S282T): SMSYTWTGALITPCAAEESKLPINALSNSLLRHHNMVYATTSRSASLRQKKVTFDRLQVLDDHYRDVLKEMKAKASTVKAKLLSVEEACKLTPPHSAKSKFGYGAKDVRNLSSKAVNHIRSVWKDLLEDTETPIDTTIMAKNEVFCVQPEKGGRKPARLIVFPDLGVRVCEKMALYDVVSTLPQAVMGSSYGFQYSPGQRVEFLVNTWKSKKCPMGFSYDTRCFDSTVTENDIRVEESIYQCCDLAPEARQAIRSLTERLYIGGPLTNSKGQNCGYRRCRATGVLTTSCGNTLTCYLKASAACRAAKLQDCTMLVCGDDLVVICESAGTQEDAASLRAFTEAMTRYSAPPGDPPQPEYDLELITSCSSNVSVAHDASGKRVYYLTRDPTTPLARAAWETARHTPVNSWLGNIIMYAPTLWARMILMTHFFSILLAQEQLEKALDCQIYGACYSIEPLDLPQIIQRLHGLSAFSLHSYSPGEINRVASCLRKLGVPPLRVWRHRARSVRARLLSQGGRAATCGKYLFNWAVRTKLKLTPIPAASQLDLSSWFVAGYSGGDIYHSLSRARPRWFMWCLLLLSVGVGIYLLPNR
- assayNotes: Inhibition of purified Hepatitis C virus NS5B polymerase S282T mutant
Provide the reported IC50 of each item.
Note: unit µM is implicit; provide only the numeric part.

// query Give the reported IC50 for this compound. CC(OP(=O)(O)OP(=O)(O)OP(=O)(O)O)[C@@]12CO[C@@H]([C@H](n3cnc4c(=O)[nH]c(N)nc43)O1)[C@@H]2O (stereo in doubt; form 1)
// result 25.1

// query Give the reported IC50 for this compound. C[C@]12OC[C@](COP(=O)(O)OP(=O)(O)OP(=O)(O)O)(O[C@H]1n1cnc3c(=O)[nH]c(N)nc31)[C@H]2O
// result 0.48

// query Give the reported IC50 for this compound. Nc1ccn([C@@H]2O[C@@]3(COP(=O)(O)OP(=O)(O)OP(=O)(O)O)CO[C@@H]2[C@@H]3O)c(=O)n1
// result 1.44

// query Give the reported IC50 for this compound. O=c1ccn([C@@H]2O[C@@]3(COP(=O)(O)OP(=O)(O)OP(=O)(O)O)CO[C@@H]2[C@@H]3O)c(=O)[nH]1
// result 12.8

// query Give the reported IC50 for this compound. Nc1ncnc2c1ncn2[C@@H]1O[C@@]2(COP(=O)(O)OP(=O)(O)OP(=O)(O)O)CO[C@@H]1[C@@H]2O
// result 86.3

// query Give the reported IC50 for this compound. Nc1nc2c(ncn2[C@@H]2O[C@@]3(COP(=O)(O)OP(=O)(O)OP(=O)(O)O)CO[C@@H]2[C@@H]3O)c(=O)[nH]1
// result 0.38

----------
- assayNotes: Inhibition of purified wild type Hepatitis C virus 1a NS5B polymerase
- Design: species or system Hepatitis C virus subtype 1a
readoutKind: pIC50
Entry type: numeric. Quantity: pIC50, the -log10 of concentration in molar units.

// query Give the reported pIC50 for this molecule. Nc1nc2c(ncn2[C@@H]2O[C@@]3(COP(=O)(O)OP(=O)(O)OP(=O)(O)O)CO[C@@H]2[C@@H]3O)c(=O)[nH]1
// result 6.43

----------
- assayNotes: Inhibition of purified wild type Hepatitis C virus 2a NS5B polymerase
- Design: species or system Hepatitis C virus subtype 2a
readoutKind: IC50

// query Give the reported IC50 for this compound. Nc1nc2c(ncn2[C@@H]2O[C@@]3(COP(=O)(O)OP(=O)(O)OP(=O)(O)O)CO[C@@H]2[C@@H]3O)c(=O)[nH]1
// result 0.29 µM
